# TEST SYSTEM: PAR4 (Homo sapiens (Human), UniProt Q96RI0)
# Sequence (Q96RI0 18-385): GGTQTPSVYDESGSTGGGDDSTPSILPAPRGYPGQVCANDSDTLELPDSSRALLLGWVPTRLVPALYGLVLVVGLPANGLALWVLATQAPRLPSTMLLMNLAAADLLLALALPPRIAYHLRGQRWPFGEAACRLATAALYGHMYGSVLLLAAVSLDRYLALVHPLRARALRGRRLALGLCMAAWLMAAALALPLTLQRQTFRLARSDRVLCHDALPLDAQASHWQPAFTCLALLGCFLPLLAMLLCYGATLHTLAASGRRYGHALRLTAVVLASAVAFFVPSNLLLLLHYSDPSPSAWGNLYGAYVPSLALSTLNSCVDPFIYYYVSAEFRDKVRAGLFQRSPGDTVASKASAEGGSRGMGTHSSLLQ
# ASSAY PROTOCOL: FLIPR assay in PAR4-expressing HEK293 cells (calcium mobilization)
# EXPERIMENTAL PARAMETERS: H-Ala-Phe(4-F)-Pro-Gly-Trp-Leu-Val-Lys-Asn-Gly-NH2-induced calcium mobilization, PAR4 antagonist activity
Record form. Attribute: pIC50. Fill in for each entry.
Answers are plain numbers, as −log10 of the molar value.

Record excerpt, results attached:
INSERT INTO results (smiles_structure, test_system, readout_value) VALUES
  ('COc1cc(OCc2csc(-c3ccc(C(=O)O)cc3)n2)c2sc(-c3cn4nc(C)sc4n3)nc2c1', 'PAR4 (Homo sapiens (Human), UniProt Q96RI0)', 4.35),
  ('COc1cc(OCc2nc(-c3ccc(C(=O)NCC(C)(C)CO)cc3)sc2C)c2sc(-c3cn4nc(C)sc4n3)nc2c1', 'PAR4 (Homo sapiens (Human), UniProt Q96RI0)', 5.80),
  ('COc1cc(OCc2csc(-c3ccc(C(=O)N(C)CC#N)cc3)n2)c2sc(-c3cn4nc(C(C)(F)F)sc4n3)nc2c1', 'PAR4 (Homo sapiens (Human), UniProt Q96RI0)', 5.59);

// for each compound below, give its pIC50
1. COc1cc(OCc2csc(-c3ccc(C(=O)N(C)C4CCOCC4)cc3)n2)c2sc(-c3cn4nc(C(C)(F)F)sc4n3)nc2c1
2. CCc1nn2cc(-c3nc4cc(OC)cc(OCc5csc(-c6ccc(C(=O)N(C)[C@H]7CCOC7)cc6)n5)c4s3)nc2s1
3. COc1cc(OCc2csc(-c3ccc(C(=O)N(C)[C@H]4CCOC4)cc3)n2)c2sc(-c3cn4nc(C)sc4n3)nc2c1

[6.12, 5.89, 5.44]

// for each compound below, give its pIC50
1. COc1cc(OCc2csc(-c3ccccc3)n2)c2sc(-c3cn4nc(C)ccc4n3)nc2c1
2. CCc1nn2cc(-c3nc4cc(OC)cc(OCc5csc(-c6ccc(C(=O)N7CCC(CCO)CC7)cc6)n5)c4s3)nc2s1
3. CCc1nn2cc(-c3nc4cc(OC)cc(OCc5csc(-c6ccc(C(=O)NCC(C)(C)CO)cc6)n5)c4s3)nc2s1
4. COc1cc(OCc2nc(-c3ccc(C(=O)N4CCC[C@H](O)C4)cc3)sc2C)c2sc(-c3cn4nc(C)sc4n3)nc2c1

1: 5.74; 2: 5.89; 3: 5.85; 4: 5.80
